biological target: human AChE (Homo sapiens); construct: The sources of human AChE and BChE were native erythrocytes and plasma, respectively; from tissue; host or cells: human erythrocytes from venous blood of a healthy volunteer; test: Reversible inhibition of AChE (Ellman's procedure, Hunter–Downs evaluation); assay type: biochemical; conditions: selectivity ratio
value.type: Ki (AChE)/Ki (BChE)

                                    compound           value_type  recorded_value
 0    CCCCCCCCCCCCCC[N+]12CCC(CC1)/C(=N\O)C2  Ki (AChE)/Ki (BChE)             0.8
 1  CCCCCCCCCCCC[N+]12CCC(CC1)C(O)C2 (centres unmarked)  Ki (AChE)/Ki (BChE)             1.5
 2  ON=C1C[N+]2(CCCCCCCCCC[N+]34CCC(CC3)C(=NO)C4)CCC1CC2  Ki (AChE)/Ki (BChE)             0.2
 3  OC1C[N+]2(CCCCCCCCCC[N+]34CCC(CC3)C(O)C4)CCC1CC2 (centres unmarked)  Ki (AChE)/Ki (BChE)             0.3
 4      CCCCCCCCCCCC[N+]12CCC(CC1)/C(=N\O)C2  Ki (AChE)/Ki (BChE)             2.6
 5    CCCCCCCCCC[N+]12CCC(CC1)C(=NO)C2.[Br-]  Ki (AChE)/Ki (BChE)             4.6
 6  CCCCCCCCCCCCCCCC[N+]12CCC(CC1)C(O)C2 (centres unmarked)  Ki (AChE)/Ki (BChE)             0.3
 7      CCCCCCCC[N+]12CCC(CC1)C(=NO)C2.[Br-]  Ki (AChE)/Ki (BChE)             2.2
 8  CCCCCCCCCCCCCCCC[N+]12CCC(CC1)/C(=N\O)C2  Ki (AChE)/Ki (BChE)             0.4
 9  CCCCCCCCCCCCCC[N+]12CCC(CC1)C(O)C2 (centres unmarked)  Ki (AChE)/Ki (BChE)             0.5
10  CCCCCCCC[N+]12CCC(CC1)C(O)C2 (centres unmarked)  Ki (AChE)/Ki (BChE)             1.8
11  ON=C1C[N+]2(CCCCCCCC[N+]34CCC(CC3)C(=NO)C4)CCC1CC2  Ki (AChE)/Ki (BChE)             0.5
12  CCCCCCCCCC[N+]12CCC(CC1)C(O)C2 (centres unmarked)  Ki (AChE)/Ki (BChE)             5.4
13  OC1C[N+]2(CCCCCCCC[N+]34CCC(CC3)C(O)C4)CCC1CC2 (centres unmarked)  Ki (AChE)/Ki (BChE)             1.9

* * *

target: human AChE (Homo sapiens, UniProt P22303); construct: The sources of human AChE and BChE were native erythrocytes and plasma, respectively; assay: Reversible inhibition of AChE (Ellman's procedure, Hunter–Downs evaluation); conditions: Ki ± standard error; 0.1, 0.2, 0.35 and 0.5 mM substrate ATCh; 25 °C, pH 7.4
Sequence (P22303 32-617 isoform P22303-2 limits assumed): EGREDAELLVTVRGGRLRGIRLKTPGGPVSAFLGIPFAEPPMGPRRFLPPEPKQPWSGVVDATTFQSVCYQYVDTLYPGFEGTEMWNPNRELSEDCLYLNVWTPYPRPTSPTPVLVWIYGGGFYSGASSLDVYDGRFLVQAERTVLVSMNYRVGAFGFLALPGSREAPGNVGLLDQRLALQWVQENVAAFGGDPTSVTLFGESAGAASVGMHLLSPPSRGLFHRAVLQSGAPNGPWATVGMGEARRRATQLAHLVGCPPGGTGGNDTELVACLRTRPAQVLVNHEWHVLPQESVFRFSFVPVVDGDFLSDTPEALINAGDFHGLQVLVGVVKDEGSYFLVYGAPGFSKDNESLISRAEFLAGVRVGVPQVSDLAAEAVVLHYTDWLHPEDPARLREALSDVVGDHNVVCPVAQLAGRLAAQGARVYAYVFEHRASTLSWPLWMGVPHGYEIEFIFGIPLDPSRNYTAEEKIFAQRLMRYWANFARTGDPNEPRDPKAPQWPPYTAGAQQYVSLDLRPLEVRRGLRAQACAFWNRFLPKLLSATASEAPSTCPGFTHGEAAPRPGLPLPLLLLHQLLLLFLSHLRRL
pKi: −log10 of the molar value.
value.type: pKi

>>> print(df.to_string())
                                    compound  recorded_value
 0  CCCCCCCCCCCCCCCC[N+]12CCC(CC1)C(O)C2 (centres unmarked)            5.05
 1    CCCCCCCCCC[N+]12CCC(CC1)C(=NO)C2.[Br-]            4.62
 2  CCCCCCCC[N+]12CCC(CC1)C(O)C2 (centres unmarked)            3.81
 3  CCCCCCCCCCCC[N+]12CCC(CC1)C(O)C2 (centres unmarked)            4.88
 4    CCCCCCCCCCCCCC[N+]12CCC(CC1)/C(=N\O)C2            5.15
 5  OC1C[N+]2(CCCCCCCC[N+]34CCC(CC3)C(O)C4)CCC1CC2 (centres unmarked)            4.62
 6  OC1C[N+]2(CCCCCCCCCC[N+]34CCC(CC3)C(O)C4)CCC1CC2 (centres unmarked)            6.28
 7      CCCCCCCC[N+]12CCC(CC1)C(=NO)C2.[Br-]            4.08
 8  CCCCCCCCCC[N+]12CCC(CC1)C(O)C2 (centres unmarked)            4.20
 9  CCCCCCCCCCCCCCCC[N+]12CCC(CC1)/C(=N\O)C2            4.72
10  ON=C1C[N+]2(CCCCCCCC[N+]34CCC(CC3)C(=NO)C4)CCC1CC2            5.74
11  CCCCCCCCCCCCCC[N+]12CCC(CC1)C(O)C2 (centres unmarked)            5.38
12  ON=C1C[N+]2(CCCCCCCCCC[N+]34CCC(CC3)C(=NO)C4)CCC1CC2            6.59
13      CCCCCCCCCCCC[N+]12CCC(CC1)/C(=N\O)C2            4.84

* * *

biological target: human BChE (Homo sapiens, UniProt P06276); construct: Plasma was removed and used as a source of BChE; from tissue; host or cells: human blood plasma from a healthy volunteer; assay: biochemical; settings: Ki ± standard error; 0.1, 0.2, 0.35 and 0.5 mM substrate ATCh; 25 °C, pH 7.4; read-out: Ki BChE
Sequence (P06276 29-602): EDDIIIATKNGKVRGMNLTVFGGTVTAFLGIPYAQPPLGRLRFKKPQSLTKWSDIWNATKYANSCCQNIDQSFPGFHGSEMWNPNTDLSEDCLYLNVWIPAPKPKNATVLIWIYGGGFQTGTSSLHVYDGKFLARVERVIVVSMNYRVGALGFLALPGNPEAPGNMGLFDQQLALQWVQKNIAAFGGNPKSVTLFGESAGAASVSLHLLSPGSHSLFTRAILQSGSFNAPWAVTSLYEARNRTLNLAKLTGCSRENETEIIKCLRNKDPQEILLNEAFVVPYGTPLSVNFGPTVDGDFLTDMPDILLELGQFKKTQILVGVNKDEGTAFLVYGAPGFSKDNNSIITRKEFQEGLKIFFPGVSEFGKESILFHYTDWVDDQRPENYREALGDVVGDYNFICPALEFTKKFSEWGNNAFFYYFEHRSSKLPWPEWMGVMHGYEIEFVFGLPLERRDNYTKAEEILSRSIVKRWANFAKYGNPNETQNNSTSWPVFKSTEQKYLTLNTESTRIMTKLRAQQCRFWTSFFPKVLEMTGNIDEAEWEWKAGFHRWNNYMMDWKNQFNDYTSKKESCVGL
value.type: Ki

>>> df
                                   compound  recorded_value
0  ON=C1C[N+]2(CCCCCCCCCC[N+]34CCC(CC3)C(=NO)C4)CCC1CC2          1.2 µM
1  ON=C1C[N+]2(CCCCCCCC[N+]34CCC(CC3)C(=NO)C4)CCC1CC2          3.4 µM
2      CCCCCCCCCCCC[N+]12CCC(CC1)/C(=N\O)C2          5.4 µM
3  CCCCCCCC[N+]12CCC(CC1)C(O)C2 (stereo not shown)         85.1 µM
4  OC1C[N+]2(CCCCCCCCCC[N+]34CCC(CC3)C(O)C4)CCC1CC2 (stereo not shown)          1.6 µM
5  CCCCCCCCCCCCCCCC[N+]12CCC(CC1)C(O)C2 (stereo not shown)         26.1 µM
6  OC1C[N+]2(CCCCCCCC[N+]34CCC(CC3)C(O)C4)CCC1CC2 (stereo not shown)         12.9 µM

* * *

pIC50 by entry:
Tested on: SH-SY5Y cells
Assay: Cytotoxicity assay (MTS) on SH-SY5Y
Format: cell-based
Conditions: Homo sapiens, 4 h exposure, read-out: IC50 ± SE SH-SY5Y 4 h
Method: SH-SY5Y cells were grown in DMEM F12 (Sigma-Aldrich, St. Louis, MO, USA) supplemented with 15% (v/v) fetal bovine serum (FBS), 2 mM glutamine, and 1% (v/v) non-essential amino acids (NEAA). HepG2 cells were grown in EMEM supplemented with 10% (v/v) FBS, 2 mM glutamine, and 1% (v/v) non-essential amino acids NEAA. All media and supplements were purchased from Sigma-Aldrich, Steinheim, Germany. The procedure followed a previously described protocol.
pIC50: −log10 of the molar value.
value.type: pIC50

>>> df
                                   compound  recorded_value
0  CCCCCCCCCC[N+]12CCC(CC1)C(O)C2 (centres unmarked) [Compound 2]          ≤ 3.10
1  OC1C[N+]2(CCCCCCCCCC[N+]34CCC(CC3)C(O)C4)CCC1CC2 (centres unmarked) [Compound 7]          ≤ 3.10
2  ON=C1C[N+]2(CCCCCCCC[N+]34CCC(CC3)C(=NO)C4)CCC1CC2 [Compound 13]          ≤ 3.10
3  CCCCCCCC[N+]12CCC(CC1)C(O)C2 (centres unmarked) [Compound 1]          ≤ 3.10
4  CCCCCCCC[N+]12CCC(CC1)C(=NO)C2.[Br-] [Compound 8]          ≤ 3.10

* * *

tested on: SH-SY5Y cells; experiment: Cytotoxicity assay (MTS) on SH-SY5Y; type: cell-based; conditions: Homo sapiens, 24 h exposure, read-out: IC50 ± SE SH-SY5Y 24 h
pIC50: −log10 of the molar value.
value.type: pIC50

>>> print(df.to_string())
                                   molecule   study_system  value_type  recorded_value
0  OC1C[N+]2(CCCCCCCC[N+]34CCC(CC3)C(O)C4)CCC1CC2 (stereo not drawn)  SH-SY5Y cells       pIC50          ≤ 3.10
1  ON=C1C[N+]2(CCCCCCCCCC[N+]34CCC(CC3)C(=NO)C4)CCC1CC2  SH-SY5Y cells       pIC50          ≤ 3.10
2  CCCCCCCCCC[N+]12CCC(CC1)C(O)C2 (stereo not drawn)  SH-SY5Y cells       pIC50          ≤ 3.10
3  CCCCCCCCCCCCCCCC[N+]12CCC(CC1)/C(=N\O)C2  SH-SY5Y cells       pIC50            4.27
4    CCCCCCCCCC[N+]12CCC(CC1)C(=NO)C2.[Br-]  SH-SY5Y cells       pIC50          ≤ 3.10
5  ON=C1C[N+]2(CCCCCCCC[N+]34CCC(CC3)C(=NO)C4)CCC1CC2  SH-SY5Y cells       pIC50          ≤ 3.10
6      CCCCCCCC[N+]12CCC(CC1)C(=NO)C2.[Br-]  SH-SY5Y cells       pIC50          ≤ 3.10
7  OC1C[N+]2(CCCCCCCCCC[N+]34CCC(CC3)C(O)C4)CCC1CC2 (stereo not drawn)  SH-SY5Y cells       pIC50          ≤ 3.10
8  CCCCCCCCCCCC[N+]12CCC(CC1)C(O)C2 (stereo not drawn)  SH-SY5Y cells       pIC50            4.25

Provenance of the data: paper PMC10778980
